Target protein (sequence): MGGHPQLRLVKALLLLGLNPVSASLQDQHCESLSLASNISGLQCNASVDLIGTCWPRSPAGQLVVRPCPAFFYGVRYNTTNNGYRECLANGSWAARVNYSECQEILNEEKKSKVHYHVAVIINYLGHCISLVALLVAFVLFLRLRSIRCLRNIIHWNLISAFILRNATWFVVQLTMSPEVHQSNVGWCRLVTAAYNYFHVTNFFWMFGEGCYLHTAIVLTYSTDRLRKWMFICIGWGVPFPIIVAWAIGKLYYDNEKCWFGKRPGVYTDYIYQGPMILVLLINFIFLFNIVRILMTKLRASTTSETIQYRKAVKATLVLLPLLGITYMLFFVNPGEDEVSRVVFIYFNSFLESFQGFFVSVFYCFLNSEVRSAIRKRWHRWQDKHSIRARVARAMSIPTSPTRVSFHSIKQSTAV
measured.endpoint: pKi
Quick note: pKi values are minus log10 of concentrations in mol/L.

CCCN(CCC)c1c(C)nc(-c2c(C)cc(C)cc2C)nc1OC; 6.45
CCCN(CCC)c1c(C)nc(-c2c(C)cc(C)cc2OC)nc1Cl; 7.48
CCCN(CCC)c1cnc(-c2c(C)cc(C)cc2OC)nc1C; 6.25
CCCN(CCC)c1c(C)nc(-c2c(C)cc(C)cc2OC)nc1OC; 7.82
CCCOc1nc(-c2c(C)cc(C)cc2OC)nc(C)c1N(CCC)CCC; 7.28

// below: pKi requested for another molecule
Any idea what pKi was measured for CCCN(CCC)c1c(C)nc(-c2c(OC)cccc2OC)nc1OC ?
6.56
